# System: U251 CNS
# MEASUREMENT NOTES: NCI tumour cell line growth inhibition, 48 h
For each entry below, report its TGI value.

Q: Write down TGI measured for item O=c1cc(NCC(O)CN2CCOCC2)n(Cc2ccccc2)c(=O)n1Cc1ccccc1 (stereo unspecified)
A: > 100 µM

Q: Write down TGI measured for item C=C1C(NC)CCC23CC24CCC2(C)C(C(C)=O)C(O)CC2(C)C4CCC13 (stereo unspecified)
A: > 100 µM

Q: Write down TGI measured for item O=C(O)CSc1ccc(N=C=S)cc1
A: > 100 µM

Q: Write down TGI measured for item COc1ccc(OC)c2c1C(=O)C(=O)C(Cl)=C2O
A: > 100 µM

Q: Write down TGI measured for item CCOP1(=O)C=CC(Cl)=C(C)C1 (stereo unspecified)
A: 65.3 µM

Q: Write down TGI measured for item CCCNc1[nH]c(C(=O)c2ccccc2)c(N)c1C(=S)Nc1ccccc1
A: > 100 µM

----------
For each entry below, report its GI50 value.
# System: UO-31 renal
# MEASUREMENT NOTES: NCI tumour cell line growth inhibition, 48 h

Q: Param request: GI50 | system UO-31 renal | item CCCCCCCC(=O)SCC/C=C/[C@@H]1CC(=O)NCc2cccc(n2)CN(Cc2ccc3ccccc3c2)CC(=O)N[C@@H](C(C)C)C(=O)O1
A: 50000 nM

Q: Param request: GI50 | system UO-31 renal | item Cc1cc(Nc2ccc3c(c2)OCO3)c2cc3c(cc2n1)OCO3
A: 1630 nM

Q: Param request: GI50 | system UO-31 renal | item CC(C)OC(=O)c1cc(NS(=O)(=O)c2ccc3ccccc3c2)cc(C(=O)OC(C)C)c1
A: 26400 nM

Q: Param request: GI50 | system UO-31 renal | item O=C(Nc1ccc([As]=[As]c2ccc(NC(=O)c3ccccc3)cc2)cc1)c1ccccc1 (centres undefined)
A: 975 nM

Q: Param request: GI50 | system UO-31 renal | item CC1(C)CC[C@]2(C(N)=O)CC[C@]3(C)C(=CC[C@@H]4[C@@]5(C)C/C(=C/c6cccnc6)C(=O)C(C)(C)[C@@H]5CC[C@]43C)[C@@H]2C1
A: 2280 nM

Q: Param request: GI50 | system UO-31 renal | item COC(=O)C1=CN(CC2=CC(=O)C(C)=CC2=O)C=C(C(=O)OC)C1c1cc(OC)ccc1OC
A: 4940 nM

Q: Param request: GI50 | system UO-31 renal | item CC(=O)OC1Oc2ccccc2-c2oc(=O)c(-c3ccc(F)cc3)cc21 (centres undefined)
A: 32800 nM

Q: Param request: GI50 | system UO-31 renal | item COc1ccc2nc3ccccc3c(NCc3ccc(Cl)cc3)c2c1
A: 1340 nM

Q: Param request: GI50 | system UO-31 renal | item O=c1ccc2nc(C(F)(F)F)nn(-c3ccccc3)c-2c1
A: 1480 nM

Q: Param request: GI50 | system UO-31 renal | item CC(=O)OC1CC2C(C)(C)C(=O)C=C[C@]2(C)C2CC[C@]3(C)C(OCC(=O)[C@H]3c3ccoc3)[C@]12C (some centres undefined)
A: 10100 nM

Q: Param request: GI50 | system UO-31 renal | item Oc1cccc(-c2nc(-c3n[nH]c(=S)n3-c3ccccc3)cc3c2[nH]c2ccccc23)c1
A: 2090 nM

Q: Param request: GI50 | system UO-31 renal | item Nn1c2c(c3ccccc3c1=O)C(=O)c1ccccc1-2
A: > 50000 nM

Q: Param request: GI50 | system UO-31 renal | item C[CH2][Pb]([CH2]C)([CH2]C)[O]C(=O)COc1ccccc1
A: 1050 nM

Q: Param request: GI50 | system UO-31 renal | item CC(=N\O)/C(C)=N/O.CC(=N\O)/C(C)=N/O.CC(=N\O)/C(C)=N/O.CC(=N\O)/C(C)=N/O.[CH3-].[CH3-].[Co].[Co]
A: 19300 nM

----------
# System: HCT-15 colon
# MEASUREMENT NOTES: NCI tumour cell line growth inhibition, 48 h
REPORTED METRIC: TGI

Q: Write down TGI measured for item NCCN.O=C([O-])C(=O)[O-].O=C([O-])C(=O)[O-].[Co+3].[K+]
A: > 100 µM

Q: Write down TGI measured for item C/C(=N\NC(=O)c1ccncc1)c1ccccc1Cl
A: > 100 µM

Q: Write down TGI measured for item O=C(/C=C/c1ccc(Br)cc1)c1ccc(NCc2nc3ccccc3[nH]2)cc1
A: 17.3 µM

Q: Write down TGI measured for item OCCCNCc1ccncc1
A: > 100 µM

Q: Write down TGI measured for item CC1(C)CN=C(Nc2ccc(F)cc2)S1
A: > 100 µM

Q: Write down TGI measured for item CN(C)CCCn1c2c(c3ccc(-c4ccn[nH]4)cc3c1=O)C(=O)c1ccccc1-2
A: 1.48 µM

Q: Write down TGI measured for item CC(C)CSCC1OC(n2cnc3c(N)nccc32)C(O)C1O (stereo unspecified)
A: > 100 µM

Q: Write down TGI measured for item C=CC(=O)N1C[C@H](COc2nc(Nc3cnn(C)c3)nc3[nH]cc(Cl)c23)[C@@H](OC)C1
A: 24.3 µM

Q: Write down TGI measured for item CCCN(CCC)c1ccc(CO)c(Cl)c1
A: > 80.9 µM

Q: Write down TGI measured for item C[Si](C)(c1ccccc1)C1CC(=O)CC(=O)C1
A: > 100 µM

Q: Write down TGI measured for item CCOC(=O)/C=C\c1c(Cl)n(-c2ccccc2)c(=O)n(-c2ccccc2)c1=O
A: 39.7 µM

----------
# Test system: PC-3 prostate
# MEASUREMENT NOTES: NCI tumour cell line growth inhibition, 48 h; in the data active = GI50 below about 0.43 µM; inactive = the rest
Form entry, call: pick from true (1) for active, false (0) for inactive

Q: Please state the recorded outcome for this compound: Cc1cc(Nc2ccc3c(c2)OCO3)c2cc3c(cc2n1)OCO3
A: false (0)

Q: Please state the recorded outcome for this compound: O=C(CCCCN1CCOCC1)Nc1ccc(Cn2nnc3c2C(=O)c2nnn(Cc4ccc(NC(=O)CCCCN5CCOCC5)cc4)c2C3=O)cc1
A: true (1)

Q: Please state the recorded outcome for this compound: C(=C1c2ccccc2-c2ccccc21)c1ccncc1
A: false (0)

Q: Please state the recorded outcome for this compound: Cc1nn(CCO)c(C)c1N=[N+]([O-])c1c(C)nn(CCO)c1C
A: false (0)

Q: Please state the recorded outcome for this compound: COc1cc(-c2csc(NC(=O)Nc3ccc(Cl)c(C(F)(F)F)c3)n2)cc(OC)c1OC
A: false (0)

Q: Please state the recorded outcome for this compound: CC(O)CCc1ccc(Oc2c3ccccc3nc3occc23)cc1 (configuration not stated)
A: false (0)

Q: Please state the recorded outcome for this compound: Cc1cc(N(CCNc2ccnc3cc(Cl)ccc23)Cc2cccs2)nc(Cl)n1
A: false (0)

Q: Please state the recorded outcome for this compound: COc1ccc2nc3ccccc3c(NCc3ccc(Cl)cc3)c2c1
A: false (0)

Q: Please state the recorded outcome for this compound: CCCCCCCC(=O)SCC/C=C/[C@@H]1CC(=O)NCc2cccc(n2)CN(Cc2ccc3ccccc3c2)CC(=O)N[C@@H](C(C)C)C(=O)O1
A: false (0)

Q: Please state the recorded outcome for this compound: Cc1cc(C2CC(O)C(CO)O2)c(Cl)cc1Cl (configuration not stated)
A: false (0)

Q: Please state the recorded outcome for this compound: N#Cc1c(Br)n(C2OC(CO)C(O)C2O)c2ncn3ccnc3c12 (configuration not stated)
A: false (0)

Q: Please state the recorded outcome for this compound: CCC(=O)OC1CCC2C3CCC(=O)OC3C(C)(CCC(=O)O)CC12C (configuration not stated)
A: false (0)

----------
# System: SW-620 colon
# MEASUREMENT NOTES: NCI tumour cell line growth inhibition, 48 h; in the data active = GI50 below about 0.43 µM; inactive = the rest
Form entry, call: pick from active, inactive

Q: Please state the recorded outcome for this compound: Cc1nn(CCO)c(C)c1N=[N+]([O-])c1c(C)nn(CCO)c1C
A: inactive

Q: Please state the recorded outcome for this compound: ClCCn1cnc2c(SCc3ccccc3Cl)ncnc21
A: inactive

Q: Please state the recorded outcome for this compound: C[CH2][Pb]([CH2]C)([CH2]C)[O]C(=O)COc1ccccc1
A: inactive

Q: Please state the recorded outcome for this compound: O=Cc1cn(Cc2ccc(Cl)cc2)c2ccccc12
A: inactive

Q: Please state the recorded outcome for this compound: C=C1C(=O)O[C@H]2[C@H]1CC/C(COC(=O)CCCC(=O)OC/C1=C/CC[C@@]3(C)O[C@H]3[C@H]3OC(=O)C(=C)[C@@H]3CC1)=C\CC[C@@]1(C)O[C@@H]21
A: inactive

Q: Please state the recorded outcome for this compound: C[C@]12CCC(=O)CC1CC[C@@H]1C2CC[C@@]2(C)C1CC[C@@H]2OC(=O)CC[Se][Se]CCC(=O)O[C@H]1CCC2[C@@H]3CCC4CC(=O)CC[C@]4(C)C3CC[C@@]21C (stereo partly drawn)
A: inactive

Q: Please state the recorded outcome for this compound: O=c1ccc2nc(C(F)(F)F)nn(-c3ccccc3)c-2c1
A: inactive

Q: Please state the recorded outcome for this compound: Cc1nc2c(o1)C(=O)c1ccccc1C2=Nc1ccccc1
A: inactive

Q: Please state the recorded outcome for this compound: NCCN.O=C([O-])C(=O)[O-].O=C([O-])C(=O)[O-].[Co+3].[K+]
A: inactive

Q: Please state the recorded outcome for this compound: CC(C)OC(=O)c1cc(NS(=O)(=O)c2ccc3ccccc3c2)cc(C(=O)OC(C)C)c1
A: inactive

Q: Please state the recorded outcome for this compound: Cn1cc(-c2ccc(-c3cn(C)c4ccc(Cl)cc34)[nH]2)c2cc(Cl)ccc21
A: inactive

Q: Please state the recorded outcome for this compound: N#Cc1c(Br)n(C2OC(CO)C(O)C2O)c2ncn3ccnc3c12 (stereo not drawn)
A: inactive

Q: Please state the recorded outcome for this compound: Oc1cccc(-c2nc(-c3n[nH]c(=S)n3-c3ccccc3)cc3c2[nH]c2ccccc23)c1
A: inactive

Q: Please state the recorded outcome for this compound: CC(=N\O)/C(C)=N/O.CC(=N\O)/C(C)=N/O.CC(=N\O)/C(C)=N/O.CC(=N\O)/C(C)=N/O.[CH3-].[CH3-].[Co].[Co]
A: inactive

Q: Please state the recorded outcome for this compound: CN(C)CCCn1c2c(c3ccc(-c4ccn[nH]4)cc3c1=O)C(=O)c1ccccc1-2
A: active

Q: Please state the recorded outcome for this compound: N#CC1=C(N)Oc2c(ccc3ccccc23)C1c1cccs1 (stereo not drawn)
A: active

Q: Please state the recorded outcome for this compound: O=C1N[C@@H]2[C@@H](O)[C@@H](O)[C@H](O)C[C@H]2c2cc3c(c(O)c21)OCO3
A: active

Q: Please state the recorded outcome for this compound: O=[N+]([O-])c1ccc2c(c1)C(=NO)c1cc([N+](=O)[O-])ccc1-2
A: inactive
